Hi there, I'd appreciate the recorded pIC50 for every entry that follows.
# assayTarget: Human Plasma Kallikrein (Homo sapiens, UniProt P03952)
# Sequence (P03952 391-638 limits assumed): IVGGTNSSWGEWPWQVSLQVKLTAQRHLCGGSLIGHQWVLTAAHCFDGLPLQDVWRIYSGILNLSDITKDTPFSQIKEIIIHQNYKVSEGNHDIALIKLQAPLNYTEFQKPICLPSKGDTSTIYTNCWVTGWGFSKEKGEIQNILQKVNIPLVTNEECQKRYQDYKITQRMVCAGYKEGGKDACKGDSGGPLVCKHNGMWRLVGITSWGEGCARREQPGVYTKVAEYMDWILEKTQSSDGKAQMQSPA
# Sequence (P03952 20-390 partner limits assumed): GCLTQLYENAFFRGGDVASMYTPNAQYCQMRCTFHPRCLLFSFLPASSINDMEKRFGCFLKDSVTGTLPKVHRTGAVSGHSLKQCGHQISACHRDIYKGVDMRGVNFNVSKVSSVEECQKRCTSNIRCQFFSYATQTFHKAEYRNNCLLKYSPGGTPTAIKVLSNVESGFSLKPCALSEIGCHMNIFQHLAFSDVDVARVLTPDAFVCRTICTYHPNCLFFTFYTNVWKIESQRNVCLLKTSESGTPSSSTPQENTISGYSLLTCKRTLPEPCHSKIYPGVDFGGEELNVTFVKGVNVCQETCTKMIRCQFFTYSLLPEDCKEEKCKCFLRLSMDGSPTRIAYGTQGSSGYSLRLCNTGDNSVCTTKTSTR
# testDetails: Inhibitory effect on ester-hydrolyzing activity of human plasma kallikrein (TAMe substrate)
# details: in vitro, TAMe; Table 4 bracketed value; read-out: Kallikrein ID50
// pIC50: -log10(molar conc.)

GET /value?item= N=C(N)Nc1ccc2c(c1)C(C(=O)Oc1cccc3c1CCCC3)CCC2 (centres unmarked) &field=pIC50 returns 3.70

GET /value?item= N=C(N)Nc1cccc2c1CCCC2C(=O)Oc1cccc2c1CCCC2 (centres unmarked) &field=pIC50 returns 3.00

GET /value?item= N=C(N)Nc1ccc2c(c1)C(C(=O)Oc1ccc(OC(=O)C3CCCc4ccc(NC(=N)N)cc43)cc1)CCC2 (centres unmarked) &field=pIC50 returns 3.64

GET /value?item= Nc1cccc2c1CCCC2C(=O)Oc1ccc(OC(=O)C2CCCc3c(N)cccc32)cc1 (centres unmarked) &field=pIC50 returns 3.44

GET /value?item= N=C(N)Nc1cccc2c1CCCC2C(=O)Oc1cccc2ccccc12 (centres unmarked) &field=pIC50 returns 3.00

GET /value?item= COc1ccc(OC(=O)C2CCCc3ccc(NC(=N)N)cc32)cc1.Cl (centres unmarked) [Compound 138, hydrochloride] &field=pIC50 returns 3.55

GET /value?item= Cl.N=C(N)Nc1ccc2c(c1)C(C(=O)Oc1ccccc1)CCC2 (centres unmarked) [Compound 134, hydrochloride] &field=pIC50 returns 3.54

GET /value?item= CN(C)C(=O)COC(=O)c1ccc(OC(=O)C2CCCc3c(N)cccc32)cc1 (centres unmarked) &field=pIC50 returns 3.00

* * *

# assayTarget: Human Plasma Kallikrein (Homo sapiens)
# testDetails: Inhibitory effect on ester-hydrolyzing activity of human plasma kallikrein (TAMe substrate)
# details: in vitro, TAMe; Table 4 bracketed value; read-out: Kallikrein ID50
readoutLabel: log10 IC50 (log10 of the value in µM)
Scale type: logarithmic (base 10). Underlying IC50 unit: µM.

GET /value?item= N=C(N)Nc1ccc2c(c1)C(C(=O)Oc1cccc3ccccc13)CCC2 (centres unmarked) &field=log10 IC50 returns 2.04

GET /value?item= N#Cc1ccc(OC(=O)C2CCCc3c(NC(=N)N)cccc32)cc1 (centres unmarked) &field=log10 IC50 returns 3.00

GET /value?item= N=C(N)Nc1ccc2c(c1)C(C(=O)Oc1ccc(Cl)cc1)CCC2 (centres unmarked) &field=log10 IC50 returns 2.08

GET /value?item= CCCCOc1ccc(OC(=O)C2CCCc3ccc(NC(=N)N)cc32)cc1 (centres unmarked) &field=log10 IC50 returns 1.88

GET /value?item= N#Cc1ccc(OC(=O)C2CCCc3ccc(NC(=N)N)cc32)cc1 (centres unmarked) &field=log10 IC50 returns 1.72

GET /value?item= CN(C)C(=O)COC(=O)CCc1ccc(OC(=O)C2CCCc3ccc(NC(=N)N)cc32)cc1 (centres unmarked) &field=log10 IC50 returns 2.62

GET /value?item= CCOC(=O)c1ccc(OC(=O)C2CCCc3ccc(NC(=N)N)cc32)cc1 (centres unmarked) &field=log10 IC50 returns 2.23

GET /value?item= N=C(N)Nc1cccc2c1CCCC2C(=O)Oc1ccc(C(=O)OCc2ccccc2)cc1 (centres unmarked) &field=log10 IC50 returns 2.28

* * *

# assayTarget: Human Cl Esterase (Homo sapiens)
# Sequence (P09871 438-688 limits assumed): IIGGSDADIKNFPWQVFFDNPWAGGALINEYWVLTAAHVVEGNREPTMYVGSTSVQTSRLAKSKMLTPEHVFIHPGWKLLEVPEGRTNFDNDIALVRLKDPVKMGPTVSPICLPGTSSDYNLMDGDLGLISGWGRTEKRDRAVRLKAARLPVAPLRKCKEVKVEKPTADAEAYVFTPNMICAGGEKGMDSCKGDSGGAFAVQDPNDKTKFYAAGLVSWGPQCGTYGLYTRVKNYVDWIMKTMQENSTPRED
# Sequence (P09871 16-437 partner limits assumed): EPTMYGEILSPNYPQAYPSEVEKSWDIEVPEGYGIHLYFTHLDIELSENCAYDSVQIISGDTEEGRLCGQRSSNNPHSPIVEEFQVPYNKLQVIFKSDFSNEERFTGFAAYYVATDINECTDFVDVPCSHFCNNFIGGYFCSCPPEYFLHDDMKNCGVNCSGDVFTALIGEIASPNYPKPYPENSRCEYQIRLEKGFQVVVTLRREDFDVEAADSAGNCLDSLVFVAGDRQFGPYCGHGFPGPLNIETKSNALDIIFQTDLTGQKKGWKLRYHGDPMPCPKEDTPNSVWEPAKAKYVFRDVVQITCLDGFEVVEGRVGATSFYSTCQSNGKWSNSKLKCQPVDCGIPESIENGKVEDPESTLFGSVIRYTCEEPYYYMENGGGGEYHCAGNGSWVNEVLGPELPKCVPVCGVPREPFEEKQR
readoutLabel: pIC50
// pIC50: -log10(molar conc.)

GET /value?item= COC(=O)c1ccc(OC(=O)C2CCCc3c(NC(=N)N)cccc32)cc1 (centres unmarked) &field=pIC50 returns 3.11

GET /value?item= Cl.N=C(N)Nc1ccc2c(c1)C(C(=O)Oc1ccccc1)CCC2 (centres unmarked) [Compound 134, hydrochloride] &field=pIC50 returns 3.43

GET /value?item= COC(=O)c1ccc(OC(=O)C2CCCc3ccc(NC(=N)N)cc32)cc1 (centres unmarked) &field=pIC50 returns 3.51

GET /value?item= CCOC(=O)c1ccc(OC(=O)C2CCCc3ccc(NC(=N)N)cc32)cc1 (centres unmarked) &field=pIC50 returns 3.59

GET /value?item= CCCCOc1ccc(OC(=O)C2CCCc3ccc(NC(=N)N)cc32)cc1 (centres unmarked) &field=pIC50 returns 3.34

GET /value?item= N=C(N)Nc1ccc2c(c1)C(C(=O)Oc1cccc3ccccc13)CCC2 (centres unmarked) &field=pIC50 returns 3.74

GET /value?item= N=C(N)Nc1cccc2c1CCCC2C(=O)Oc1ccc(Cl)cc1 (centres unmarked) &field=pIC50 returns 3.17

GET /value?item= CCOC(=O)COC(=O)CCc1ccc(OC(=O)C2CCCc3ccc(NC(=N)N)cc32)cc1 (centres unmarked) &field=pIC50 returns 3.38

GET /value?item= CN(C)C(=O)COC(=O)CCc1ccc(OC(=O)C2CCCc3ccc(NC(=N)N)cc32)cc1 (centres unmarked) &field=pIC50 returns 3.15

GET /value?item= CCCCOc1ccc(OC(=O)C2CCCc3c(NC(=N)N)cccc32)cc1 (centres unmarked) &field=pIC50 returns 3.46

GET /value?item= N=C(N)Nc1ccc2c(c1)C(C(=O)Oc1ccc(Cl)cc1)CCC2 (centres unmarked) &field=pIC50 returns 3.60

GET /value?item= Cc1ccc(OC(=O)C2CCCc3ccc(NC(=N)N)cc32)cc1 (centres unmarked) &field=pIC50 returns 3.27

GET /value?item= COc1cccc(OC(=O)C2CCCc3ccc(NC(=N)N)cc32)c1 (centres unmarked) &field=pIC50 returns 3.35

GET /value?item= N=C(N)Nc1ccc2c(c1)C(C(=O)Oc1cccc3c1CCCC3)CCC2 (centres unmarked) &field=pIC50 returns 3.38

GET /value?item= NC(=O)COC(=O)c1ccc(OC(=O)C2CCCc3ccc(N)cc32)cc1 (centres unmarked) &field=pIC50 returns 3.27

GET /value?item= N=C(N)Nc1cccc2c1CCCC2C(=O)Oc1cccc2c1CCCC2 (centres unmarked) &field=pIC50 returns 3.40

GET /value?item= N=C(N)Nc1ccc2c(c1)C(C(=O)Oc1ccc(OC(=O)C3CCCc4ccc(NC(=N)N)cc43)cc1)CCC2 (centres unmarked) &field=pIC50 returns 3.37

These entries and their values trace back to patent US4214093A.
